# system name: 5-LOX (Homo sapiens)
# protocol notes: Cell-free 5-LOX activity (isolated human recombinant enzyme)
# run conditions: read-out: 5-LOX enzyme residual activity at 1 μM
assay readout: remaining activity at 1 µM (%)
Unit % implied. Number only.

Example entries begin here.
INSERT INTO results (compound, system_name, assay_readout, value_units, result) VALUES
  ('C/C(=C\CC[C@]1(C)CCc2c(C)c(O)cc(C)c2O1)CC/C=C(\C)CCCC(C)C(=O)O (stereo partly shown) [Compound 19a]', '5-LOX (Homo sapiens)', 'remaining activity at 1 µM', '%', 41.2),
  ('C/C(=C\CC/C(C)=C/CC[C@]1(C)CCc2c(C)c(O)cc(C)c2O1)CCC=C(CO)CO [Compound 27b]', '5-LOX (Homo sapiens)', 'remaining activity at 1 µM', '%', 0),
  ('Cc1cc(O)cc2c1O[C@](C)(CC/C=C/C(=O)O)CC2 [Compound 17]', '5-LOX (Homo sapiens)', 'remaining activity at 1 µM', '%', 65.3);

For Cc1cc(O)cc2c1O[C@](C)(CCCC(C)CCCC(C)CCCC(CO)CO)CC2 (stereo partly shown) [Compound 26] , what is its reported remaining activity at 1 µM? 53.1

---

# system name: UniProt P09917
# Sequence (P09917 1-674): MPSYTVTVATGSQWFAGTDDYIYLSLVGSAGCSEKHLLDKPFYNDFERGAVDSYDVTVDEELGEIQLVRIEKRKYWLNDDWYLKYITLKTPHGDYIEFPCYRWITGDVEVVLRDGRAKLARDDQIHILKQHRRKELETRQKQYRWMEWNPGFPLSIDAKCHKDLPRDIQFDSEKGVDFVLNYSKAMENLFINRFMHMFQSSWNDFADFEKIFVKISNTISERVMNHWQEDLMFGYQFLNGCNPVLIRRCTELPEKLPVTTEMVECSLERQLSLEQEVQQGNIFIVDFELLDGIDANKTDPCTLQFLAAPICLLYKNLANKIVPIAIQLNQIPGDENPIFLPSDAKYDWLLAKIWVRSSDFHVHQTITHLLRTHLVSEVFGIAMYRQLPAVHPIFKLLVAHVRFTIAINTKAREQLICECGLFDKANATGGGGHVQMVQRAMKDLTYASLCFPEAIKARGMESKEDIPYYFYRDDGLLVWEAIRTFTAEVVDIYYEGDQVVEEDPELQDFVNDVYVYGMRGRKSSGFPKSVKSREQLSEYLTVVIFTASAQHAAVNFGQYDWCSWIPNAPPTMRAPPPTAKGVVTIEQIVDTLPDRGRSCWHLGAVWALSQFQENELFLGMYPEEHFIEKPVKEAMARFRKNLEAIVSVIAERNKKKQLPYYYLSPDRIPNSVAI
# protocol notes: 5-LOX product formation in activated PMNL;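 also: freshly isolated human PMNL in PBS pH 7.4 plus glucose, preincubated 10 min at 37 °C with compound, 5-LOX products (all-trans LTB4 isomers, 5-HETE) quantified by RP-HPLC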
pIC50: −log10 of the molar value.
assay readout: pIC50

For orientation, consider the following solved cases.
INSERT INTO results (molecule, system_name, result) VALUES
  ('COc1ccc(C2OCC(=CCC/C(C)=C/CC/C(C)=C/CC[C@]3(C)CCc4c(C)c(O)c(CO)c(C)c4O3)CO2)cc1OC (stereo partly drawn) [Compound 46]', 'UniProt P09917', 6.41),
  ('CC(C)=CCC/C(C)=C/CC/C(C)=C/CC[C@]1(C)CCc2c(C=O)c(O)cc(C)c2O1 [Compound 7]', 'UniProt P09917', '< 5.52'),
  ('C/C(=C\CC/C(C)=C/CC[C@]1(C)CCc2c(CO)c(O)cc(C)c2O1)CCC=C1COC(c2ccc([N+](=O)[O-])cc2)OC1 (stereo partly drawn) [Compound 48]', 'UniProt P09917', 6.31);

Give its pIC50 value. Item: C/C(=C\CC/C(C)=C/CC[C@]1(C)CCc2cc(O)cc(C)c2O1)CC/C=C(/C=O)CO [Compound 11] 6.24

Next record, please: Cc1c(C=O)c(O)c(Cl)c2c1O[C@](C)(CCC[C@H](C)CCC[C@H](C)CCCC(C)C)CC2 [Compound 2] < 5.52

Now try Cc1cc(O)c(C=O)c2c1O[C@](C)(CCC[C@H](C)CCC[C@H](C)CCCC(C)C)CC2 [Compound 3] . < 5.52
